- System: compound-treated mice
- test: Neuropharmacological assay (SmartCube): behavioral activity signature and minimal effective dose
- Type: in vivo
- cond: i.p. 15 min before test, most efficacious dose(s)
Where a name gives a salt, the structure may show the parent alone.
readout: AG: analgesic (probability of activity signature)

{"compound": "CNC1COCc2ccccc21.Cl (stereo not drawn) [Example 54, N-Methylisochroman-4-amine hydrochloride]", "value.observed": "++ (5% ≤ ++ <25%)"}
{"compound": "COc1ccc2c(c1)[C@H](N)[C@@H](C)OC2 (single isomer, unassigned) [Example 171]", "value.observed": "++ (5% ≤ ++ <25%)"}
{"compound": "Cc1nc2c3c(ccc2s1)COCC3N.Cl (stereo not drawn) [Example 16]", "value.observed": "++ (5% ≤ ++ <25%)"}
{"compound": "N[C@H]1COCc2ccccc21 (single isomer, unassigned) [Example 112]", "value.observed": "++ (5% ≤ ++ <25%)"}
{"compound": "CC(C)[C@@H]1OCc2ccccc2[C@@H]1N (relative stereo) [Example 256, hydrochloride]", "value.observed": "+ (LOQ ≤ + <5%)"}
{"compound": "CN[C@H]1COCc2ccc(OC)cc21 [Example 140]", "value.observed": "++ (5% ≤ ++ <25%)"}
{"compound": "CCCN[C@H]1COCc2ccccc21.Cl [Example 265]", "value.observed": "+ (LOQ ≤ + <5%)"}
{"compound": "CN[C@H]1COCc2c(Cl)cccc21 (single isomer, unassigned) [Example 150]", "value.observed": "++ (5% ≤ ++ <25%)"}
{"compound": "COc1cccc2c1[C@H](N)[C@H](C)OC2.Cl [Example 230]", "value.observed": "+ (LOQ ≤ + <5%)"}
{"compound": "CCCN[C@@H]1COCc2ccccc21.Cl [Example 262]", "value.observed": "+ (LOQ ≤ + <5%)"}
{"compound": "CCc1ccc2c(c1)[C@H](N)[C@@H](C)OC2.Cl [Example 220]", "value.observed": "++ (5% ≤ ++ <25%)"}
{"compound": "CN(C)C1COCc2ccccc21.Cl (stereo not drawn) [Example 60]", "value.observed": "++ (5% ≤ ++ <25%)"}
{"compound": "Cc1ccc2c(c1)[C@@H](N)[C@H](C)OC2.Cl (relative stereo) [Example 77]", "value.observed": "++ (5% ≤ ++ <25%)"}
{"compound": "C[C@H]1OC[C@@H](N)c2cc(Cl)ccc21.Cl [Example 203]", "value.observed": "++ (5% ≤ ++ <25%)"}
{"compound": "COc1ccc2c(c1)[C@H](N)COC2 (single isomer, unassigned) [Example 121]", "value.observed": "++ (5% ≤ ++ <25%)"}
{"compound": "Cc1ccc2c(c1)CO[C@H](C)[C@H]2N.Cl [Example 96]", "value.observed": "++ (5% ≤ ++ <25%)"}
{"compound": "CC[C@@H]1OCc2ccc(C)cc2[C@H]1N (single isomer, unassigned) [Example 178]", "value.observed": "++ (5% ≤ ++ <25%)"}
{"compound": "C[C@H]1OCc2ccc(F)cc2[C@H]1N [Example 186]", "value.observed": "++ (5% ≤ ++ <25%)"}
{"compound": "Cc1cccc2c1CO[C@@H](C)[C@H]2N.Cl [Example 97]", "value.observed": "+ (LOQ ≤ + <5%)"}
{"compound": "C[C@@H]1OCc2c(Cl)cccc2[C@@H]1N.Cl [Example 86]", "value.observed": "++ (5% ≤ ++ <25%)"}
{"compound": "Cc1ccc2c(c1C)C(N)CCOC2.Cl (stereo not drawn) [Example 43]", "value.observed": "++ (5% ≤ ++ <25%)"}
{"compound": "Cc1cccc2c1CO[C@H](C)[C@H]2N.Cl [Example 98]", "value.observed": "++ (5% ≤ ++ <25%)"}
{"compound": "CC[C@H]1OCc2ccccc2[C@H]1N (single isomer, unassigned) [Example 192]", "value.observed": "+ (LOQ ≤ + <5%)"}
{"compound": "C[C@@H]1OC[C@@H](N(C)C)c2ccccc21 (stereo in doubt) [Example 239, hydrochloride]", "value.observed": "++ (5% ≤ ++ <25%)"}
{"compound": "CN[C@@H]1COCc2ccc(Cl)c(Cl)c21 [Example 147]", "value.observed": "++ (5% ≤ ++ <25%)"}
{"compound": "Cc1ccc(C)c2c1COC[C@@H]2N (single isomer, unassigned) [Example 166]", "value.observed": "+ (LOQ ≤ + <5%)"}
{"compound": "Cc1ccc2c(c1)[C@H](N)COC2 [Example 123]", "value.observed": "++ (5% ≤ ++ <25%)"}
{"compound": "CCCN[C@@H]1c2ccccc2CO[C@H]1C.Cl [Example 264]", "value.observed": "+ (LOQ ≤ + <5%)"}
{"compound": "CC[C@H]1OCc2ccccc2[C@@H]1N (single isomer, unassigned) [Example 193]", "value.observed": "++ (5% ≤ ++ <25%)"}
{"compound": "Cl.N[C@H]1c2ccccc2CO[C@@H]1CF (single isomer, unassigned) [Example 276]", "value.observed": "+ (LOQ ≤ + <5%)"}
{"compound": "Cc1ccc(C)c2c1COC[C@H]2N (single isomer, unassigned) [Example 165]", "value.observed": "+ (LOQ ≤ + <5%)"}
{"compound": "C[C@H]1OCc2ccc(F)cc2[C@@H]1N [Example 183]", "value.observed": "++ (5% ≤ ++ <25%)"}
{"compound": "Cc1ccc2c(c1C)C(N(C)C)COC2.Cl (stereo not drawn) [Example 61]", "value.observed": "++ (5% ≤ ++ <25%)"}
{"compound": "Cl.NC1COCc2ccccc21 (stereo not drawn) [Example 12]", "value.observed": "++ (5% ≤ ++ <25%)"}
{"compound": "C[C@@H]1OCc2ccccc2[C@@H]1N.Cl (relative stereo) [Example 72]", "value.observed": "++ (5% ≤ ++ <25%)"}
{"compound": "Cc1ccc2c(c1)[C@@H](N)CCOC2 (single isomer, unassigned) [Example 116]", "value.observed": "++ (5% ≤ ++ <25%)"}
{"compound": "CC[C@@H]1OCc2ccccc2[C@@H]1N.Cl (single isomer, unassigned) [Example 198]", "value.observed": "+ (LOQ ≤ + <5%)"}
{"compound": "CC[C@H]1OCc2ccc(F)cc2[C@@H]1N [Example 181]", "value.observed": "++ (5% ≤ ++ <25%)"}
{"compound": "CN[C@H]1COCc2ccc(C)cc21 [Example 142]", "value.observed": "++ (5% ≤ ++ <25%)"}
